system: CEM cells HIV-1 protection, formazan growth assay; assay: NCI AIDS Antiviral Assay; details: measured here: growth of uninfected CEM cells
Please go through the items and note down their IC50.
One number for each entry, in µM.

CCNC(=O)Nc1ccc(Cl)cn1    132
C=C1CC(CN2CCC(=O)NC2=O)(c2ccccc2)OC1=O (stereo not drawn)    1.48
O=C(CCCCC[n+]1ccccc1)Sc1ccccc1C(=O)NCc1ccc2c(c1)OCO2    5.37
COc1cc(C=NC2CCCCC2)cc(OC)c1OC    95.5

# return IC50 for each item in the list
1. O=C(C1OC1c1cccc([N+](=O)[O-])c1)C12CC3CC(CC(C3)C1)C2 (stereo not drawn)
2. C#CC1(O)CC[C@H]2[C@@H]3CCC4=CCCC[C@@H]4[C@H]3CC[C@@]21C (stereo partly drawn)
3. Nc1ncc(/C=C/CNC(=O)c2ccc[nH]2)[nH]1
4. CC(=O)Oc1ccc2cc(-c3ccc(OC(C)=O)c(OC(C)=O)c3)c(=O)oc2c1
5. CSS(C)(=O)=O
6. COC(=O)c1cccc(C)c1C1CN=NC12Cc1cc(C)cc(C)c1C2=O (stereo not drawn)
7. COc1cc(/C=C2\C(=O)N(c3cccc(Cl)c3)C(c3ccccc3)S2(=O)=O)cc(OC)c1OC (stereo not drawn)
8. COc1ccc(OC)c2c(OC)cc(C)cc12

Out:
[3.47, 30.9, 155, 64.6, 53.7, 12.3, 112, 89.1]

In: State its IC50 on CEM cells HIV-1 protection, formazan growth assay: O=C1NN=C2CCCCCCC12Cl (stereo not drawn)
Out: 158
